B1: Osa-1-4 twister ribozyme (parent)
chain: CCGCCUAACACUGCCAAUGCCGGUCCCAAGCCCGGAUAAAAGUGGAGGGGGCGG

Variants of: B1
Experiment: self-cleavage, relative activity (ratio to wild type); higher = more cleavage; co-transcriptional
Reported self-cleavage by item:

{"variant string": "A7G G30A", "self-cleavage": 0.04}
{"variant string": "A7U G45U", "self-cleavage": 0.02}
{"variant string": "A38G U43G", "self-cleavage": 0.62}
{"variant string": "A28G G19C", "self-cleavage": 0.05}
{"variant string": "A8C G23U", "self-cleavage": 0.07}
{"variant string": "A17G U12C", "self-cleavage": 0.56}
{"variant string": "A7C U37G", "self-cleavage": 0.07}
{"variant string": "G47A G49A", "self-cleavage": 0.05}
{"variant string": "A41G U12G", "self-cleavage": 0.21}
{"variant string": "A10U G35U", "self-cleavage": 0.04}
{"variant string": "A41U", "self-cleavage": 1.02}
{"variant string": "A36G G19A", "self-cleavage": 0.8}
{"variant string": "A40U A7G", "self-cleavage": 0.13}
{"variant string": "C9A U24C", "self-cleavage": 0.07}
{"variant string": "C21G G54A", "self-cleavage": 0.07}
{"variant string": "A16G G13U", "self-cleavage": 0.04}
{"variant string": "C26A G34U", "self-cleavage": 0.04}
{"variant string": "C52U G45A", "self-cleavage": 0.54}
{"variant string": "C52U U37A", "self-cleavage": 0.84}
{"variant string": "A29C U43A", "self-cleavage": 0.03}
{"variant string": "C52G G23C", "self-cleavage": 0.09}
{"variant string": "A36U G49U", "self-cleavage": 0.17}
